- MEASURED_ON: rh-α5β1 (Homo sapiens, UniProt P05556+P08648)
- Sequence (P08648 42-894 limits assumed): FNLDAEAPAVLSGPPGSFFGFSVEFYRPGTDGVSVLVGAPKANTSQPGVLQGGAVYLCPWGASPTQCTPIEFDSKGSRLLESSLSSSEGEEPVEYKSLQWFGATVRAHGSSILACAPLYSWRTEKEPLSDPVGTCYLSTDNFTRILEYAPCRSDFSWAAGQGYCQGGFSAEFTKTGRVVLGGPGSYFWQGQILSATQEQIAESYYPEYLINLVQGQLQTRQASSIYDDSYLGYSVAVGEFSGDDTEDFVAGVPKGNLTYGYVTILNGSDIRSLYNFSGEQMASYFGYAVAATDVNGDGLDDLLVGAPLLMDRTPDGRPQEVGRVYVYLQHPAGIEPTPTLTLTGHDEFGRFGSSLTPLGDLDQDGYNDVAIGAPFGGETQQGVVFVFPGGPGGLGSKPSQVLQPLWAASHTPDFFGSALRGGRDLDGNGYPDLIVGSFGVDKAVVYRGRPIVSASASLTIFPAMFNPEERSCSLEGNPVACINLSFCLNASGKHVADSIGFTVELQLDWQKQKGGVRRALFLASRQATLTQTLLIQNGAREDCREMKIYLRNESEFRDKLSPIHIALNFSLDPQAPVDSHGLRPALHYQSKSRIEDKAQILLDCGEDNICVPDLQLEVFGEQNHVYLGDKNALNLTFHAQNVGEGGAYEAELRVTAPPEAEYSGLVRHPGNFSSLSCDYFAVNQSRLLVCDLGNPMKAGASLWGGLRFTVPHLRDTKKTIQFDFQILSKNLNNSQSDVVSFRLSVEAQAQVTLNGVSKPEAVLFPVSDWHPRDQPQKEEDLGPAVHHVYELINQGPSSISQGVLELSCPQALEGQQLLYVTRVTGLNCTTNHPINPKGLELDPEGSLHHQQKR
- Sequence (P08648 895-995 limits assumed): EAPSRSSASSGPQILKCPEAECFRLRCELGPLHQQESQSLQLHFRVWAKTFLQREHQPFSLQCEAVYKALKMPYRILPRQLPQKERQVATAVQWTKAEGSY
- Sequence (P05556 21-728 limits assumed): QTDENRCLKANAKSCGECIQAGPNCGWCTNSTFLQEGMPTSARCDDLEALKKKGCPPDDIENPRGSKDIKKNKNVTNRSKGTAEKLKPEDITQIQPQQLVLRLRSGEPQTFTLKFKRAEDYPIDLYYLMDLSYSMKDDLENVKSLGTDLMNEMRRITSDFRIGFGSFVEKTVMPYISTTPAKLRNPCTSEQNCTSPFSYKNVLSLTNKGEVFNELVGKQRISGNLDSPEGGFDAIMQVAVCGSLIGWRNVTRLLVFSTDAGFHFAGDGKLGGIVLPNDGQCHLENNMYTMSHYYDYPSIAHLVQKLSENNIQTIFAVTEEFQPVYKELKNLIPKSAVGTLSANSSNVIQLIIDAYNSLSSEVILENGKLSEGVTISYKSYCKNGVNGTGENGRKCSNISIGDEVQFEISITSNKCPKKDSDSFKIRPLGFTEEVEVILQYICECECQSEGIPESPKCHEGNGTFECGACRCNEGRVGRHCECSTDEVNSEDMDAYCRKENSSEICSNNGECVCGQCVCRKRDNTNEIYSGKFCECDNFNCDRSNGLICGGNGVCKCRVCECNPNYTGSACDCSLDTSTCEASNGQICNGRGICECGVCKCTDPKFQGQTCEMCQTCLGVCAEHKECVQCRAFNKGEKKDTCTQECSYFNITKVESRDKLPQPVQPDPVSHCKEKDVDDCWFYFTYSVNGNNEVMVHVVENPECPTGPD
- MEASUREMENT_PROTOCOL: Competition binding studies by Biolayer Interferometry (epitope groups)
- EXPERIMENTAL_PARAMETERS: immobilized mAb C-14D12; secondary mAb pre-mixed with 20 nM rh-α5β1
READOUT_TYPE: Response (nm)
Kindly provide the numeric value in nm only, without the unit symbol.

Answer with reported Response (nm) of C-14D12: anti-α5β1 antibody, VH SEQ ID NO:109, VL SEQ ID NO:110; tested as mouse hybridoma antibody and as human IgG4 chimera (antibody, V domains shown, C-14D12 VH Sequence; C-14D12 VL Sequence, tested as mouse hybridoma antibody and as human IgG4 chimera) VH: QVQLKESGPDLVAPSQSLSITCTVSGFSLTDYGVHWVRQPPGKGLEWLVVIWSDGSTTYNSALKSRLSITKDTSKRQVFLKMNSLQTDDTAMYYCARHAPSFIRYGSRYDALDYWGQGTSVTVSS VL: QIVLTQSPAIMSASLGERVTLTCTASSSVTSSFLHWYQQKPGSSPKLWIYSTSNLASGVPARFSGSGSGTSYSLTISSMEAEDAATYYCHQYHRSPPTFGGGTKLEIK
−0.11

Answer with reported Response (nm) of A2-5D10: anti-α5β1 antibody, VH SEQ ID NO:51, VL SEQ ID NO:52 (antibody, V domains shown, A2-5D10 VH Sequence; A2-5D10 VL Sequence) VH: QVQLKESGPGLVAPSQSLSITCTISGFSLTSYGVHWVRQPPGKGLEWLVVIWSDGSTTYNSTLKSRLSISKDNSKSQVFLKMNSLQTDDTAMYYCARHYDYDGDWFAYWGQGTLVTVSA VL: QILLTQSPAIMSASLGERVTMTCTASSSVSSRCLHWYQQKPGSSPKLWIYSTSNLASGVPARFRGSGSGTSYSLTISSMEAEDAATYYCHQYYRSPPTFGGGTKLEIK
0.24

Answer with reported Response (nm) of A2-7A05: anti-α5β1 antibody, VH SEQ ID NO:77, VL SEQ ID NO:78; tested as mouse hybridoma antibody and as human IgG4 chimera (antibody, V domains shown, A2-7A05 VH Sequence; A2-7A05 VL Sequence, tested as mouse hybridoma antibody and as human IgG4 chimera) VH: QVQLQQPGAELVKPGASVKLSCKASGYTFTIYWINWVKQRPGQGLEWIGKIYPGSISTDYNEKFKSKATLTVDTSSSTAYMQLSSLTSDDSAVYYCAITGTGGLAYWGQGTLVTVSA VL: ENVLTQSPAIMSASLGEKVTMTCRASSSVNYMYWYQQKSDASPKLWIYFTSSLAPGVPGRFSGSGSGNSYSLTISTMEGEDAATYYCQQFTTSPFTFGSGTKLEIK
0.31

Answer with reported Response (nm) of A-15B08: anti-α5β1 antibody, VH SEQ ID NO:25, VL SEQ ID NO:26; tested as mouse hybridoma antibody and as human IgG4 chimera (antibody, V domains shown, A-15B08 VH Sequence; A-15B08 VL Sequence, tested as mouse hybridoma antibody and as human IgG4 chimera) VH: QVQLKESGPGLVAPSQSLSITCTISGFSLTSYGVHWVRQPPGKGLEWLVVIWSDGSTTYNSTLKSRLSISKDNSKSQVFFKMNSLQTDDTAMYYCARHYDYDGDWFAYWGQGTLVTVSA VL: QIVLTQSPAIMSASLGERVTMTCTASSRVSSNSLHWYQQKPGSSPKLWIYSTSNLASGVPARFSGSGSGTSYSLTISSMEAEDAATYYCHQYLRSPPTFGGGTKLEIK
−0.09

Answer with reported Response (nm) of A2-7F01: anti-α5β1 antibody, VH SEQ ID NO:91, VL SEQ ID NO:92 (antibody, V domains shown, A2-7F01 VH Sequence; A2-7F01 VL Sequence) VH: QVQLQQPGAELVKPGASVKLSCKASGYTFTIYWINWVKQRPGQGLEWIGNIYPGSSSTNYNEKFKTKATLTVDTSSSTAYMQLSSLTSDDSAVYYCAITGTGGFAYWGQGTLVTVSA VL: ENVLTQSPAIMSASLGEKVTMSCRASSSVNYMYWYQQKSDASPKLWIYFTSSLAPGVPTRFSGSGSGNSFSLTISSMEGEDAATYYCQQLTGSPFTFGSGTRLEIK
0.30

Answer with reported Response (nm) of A2-3B06: anti-α5β1 antibody, VH SEQ ID NO:42, VL SEQ ID NO:43 (antibody, V domains shown, A2-3B06 VH Sequence; A2-3B06 VL Sequence) VH: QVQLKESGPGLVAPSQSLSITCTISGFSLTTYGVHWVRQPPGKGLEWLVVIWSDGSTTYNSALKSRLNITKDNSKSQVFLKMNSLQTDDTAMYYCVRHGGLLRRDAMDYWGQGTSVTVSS VL: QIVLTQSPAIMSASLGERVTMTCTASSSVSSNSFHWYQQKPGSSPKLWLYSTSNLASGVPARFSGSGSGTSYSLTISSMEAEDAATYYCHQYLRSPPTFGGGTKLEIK
0.12
